Entries and their measured Emax follow.
Target: T1, human SPNS2 (human, UniProt Q8IVW8 1-549)
T1 construct: S1P transporter; in Cell ELISA and S1P assays on Flp-in 293 cells that also express human SphK1; also called Spinster homolog 2; native type
T1 sequence: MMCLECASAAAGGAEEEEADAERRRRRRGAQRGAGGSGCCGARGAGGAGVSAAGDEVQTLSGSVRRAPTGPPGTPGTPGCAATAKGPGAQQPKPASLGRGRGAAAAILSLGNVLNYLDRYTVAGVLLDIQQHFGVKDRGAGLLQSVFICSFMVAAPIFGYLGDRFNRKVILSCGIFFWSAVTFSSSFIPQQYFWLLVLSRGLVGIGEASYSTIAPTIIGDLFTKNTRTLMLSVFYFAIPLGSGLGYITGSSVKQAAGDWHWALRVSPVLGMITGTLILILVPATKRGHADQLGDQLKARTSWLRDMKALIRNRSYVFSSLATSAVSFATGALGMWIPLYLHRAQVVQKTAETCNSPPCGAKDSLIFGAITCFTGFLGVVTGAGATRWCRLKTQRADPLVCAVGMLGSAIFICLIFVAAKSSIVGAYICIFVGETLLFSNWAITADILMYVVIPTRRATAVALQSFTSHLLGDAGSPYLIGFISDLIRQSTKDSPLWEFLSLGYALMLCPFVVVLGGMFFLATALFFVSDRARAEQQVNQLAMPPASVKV
Test: Cell ELISA
Protocol: Human and mouse SPNS2 and human SphK1 double stable expression Flp-in 293 cells were added to a poly D lysine coat 96-well plate (Corning, 356461) in a density of 1×10⁵ cells/well and was cultivated overnight, and then the culture medium was removed. […] After 20 minutes, 2N sulfuric acid was added to each well (100 μL), and absorbance at 450 nm and 550 nm was measured. […]
measuredParameter: Emax (absorbance)

binder: 65-0810G (antibody, IgG2b, V domains shown) VH: EVHLVESGGGLVQPGRSMKLSCTASGFTFNNYYMAWVRQAPTKGLEWVASISTGGGYTYYRDSVKGRFTISRDNTGNTLYLQMDSLRSEDTATYYCARCWELPYWGQGVMVTVSS VL: QFVLTQPNSVSTNLGSTVKLSCRRSSGNIGNNYVNWYRQHEGRSPTTMIYRDDTRPDGVPNRFSGSIDRSSNSALLTINNVRPEDEAYYFCQSYSGSIYIFGGGTKLTVL
unitSpec: absorbance
reportedResult: 1.7
//
binder: 84-1111F (antibody, IgG2b, V domains shown) VH: EVQVVESGGGLVQPGRSMKLSCAALGFTFRDYYMAWVRQTPTKGLEWVAAISTGGGNTYYRDSVKGRFTISRDNAKSTLYLKMDSLRSDDTATYYCARNPYGNYFDYWGQGVMVTVSS VL: QFVLSQPNSVSTNLGSTVKLSCKRSTGNIGSNYVHWYQRHEGRSPTTMIYRDDKRPNGVPDRFSGSIDRSSNSALLTINNVQTEDEADYFCQSYSGGMYLFGGGTTLTVL
unitSpec: absorbance
reportedResult: 1.68
